Reference source for all entries: the OligoGym collection

Conditions: siRNA; also: test system not given here
HELM strings list units from the 5' end as sugar, base in round brackets, then linkage (d deoxyribose, r ribose, m 2'-O-methyl, p phosphodiester). Strings are as the collection lists them, not checked against the first reports. ss, as = sense and antisense strand; [lna] = locked nucleic acid (LNA); [hna] = hexitol nucleic acid
Property name: target mRNA knockdown (%)
Respond with the bare value in %.

The measured target mRNA knockdown associated with "RNA1{[hna](G)p.[hna](A)p.[hna](C)p.r(G)p.r(U)p.r(A)p.r(A)p.r(A)p.r(C)p.r(G)p.r(G)p.r(C)p.r(C)p.r(A)p.r(C)p.r(A)p.r(A)p.[hna](G)p.[hna](U)p.r(U)p.d(T)}|RNA2{r(A)p.r(C)p.[lna](T)p.r(U)p.r(G)p.[lna](T)p.r(G)p.r(G)p.r(C)p.r(C)p.r(G)p.r(U)p.r(U)p.[lna](T)p.r(A)p.r(C)p.r(G)p.[lna](T)p.r(C)p.[lna](G)p.[lna](C)}$$$RNA1{StrandType:ss}|RNA2{StrandType:as}$" reads 5.4

###

Settings: siRNA
HELM strings list units from the 5' end as sugar, base in round brackets, then linkage (d deoxyribose, r ribose, m 2'-O-methyl, p phosphodiester). Strings are as the collection lists them, not checked against the first reports. ss, as = sense and antisense strand; [s4r] = 4'-thioribose
Assign target mRNA knockdown to each entry below.
Number in %, nothing else.

The substance listed as "RNA1{r(A)p.r(U)p.r(C)p.r(A)p.r(C)p.r(A)p.r(A)p.r(A)p.r(C)p.r(C)p.r(C)p.r(C)p.m(U)p.r(A)p.r(G)p.r(A)p.r(G)p.r(G)p.r(G)p.r(T)p.r(T)}|RNA2{r(C)p.r(C)p.r(C)p.r(U)p.r(C)p.m(U)p.r(A)p.r(G)p.r(G)p.r(G)p.r(G)p.r(U)p.r(U)p.r(U)p.r(G)p.r(U)p.r(G)p.r(A)p.r(U)p.r(T)p.r(T)}$$$RNA1{StrandType:ss}|RNA2{StrandType:as}$" has a reported target mRNA knockdown of 29

Item: "RNA1{r(C)p.r(G)p.r(U)p.r(A)p.r(C)p.r(G)p.r(C)p.r(G)p.r(G)p.r(A)p.r(A)p.r(U)p.r(A)p.r(C)p.r(U)p.r(U)p.r(C)p.r(G)p.r(A)p.r(T)p.r(T)}|RNA2{[s4r](U)p.r(C)p.r(G)p.r(A)p.r(A)p.r(G)p.[s4r](U)p.r(A)p.[s4r](U)p.[s4r](U)p.r(C)p.r(C)p.r(G)p.r(C)p.r(G)p.[s4r](U)p.r(A)p.r(C)p.r(G)p.r(T)p.r(T)}$$$RNA1{StrandType:ss}|RNA2{StrandType:as}$" | target mRNA knockdown: 79.5

###

I'd appreciate it if you could supply target mRNA knockdown values for the items below.
Conditions: siRNA
HELM strings list units from the 5' end as sugar, base in round brackets, then linkage (d deoxyribose, r ribose, m 2'-O-methyl, p phosphodiester). Strings are as the collection lists them, not checked against the first reports. ss, as = sense and antisense strand; [lna] = locked nucleic acid (LNA)
Express it in %; write the number only.

Entry "RNA1{r(C)p.r(U)p.r(U)p.r(A)p.r(C)p.r(G)p.r(C)p.r(U)p.r(G)p.r(A)p.r(G)p.r(U)p.r(A)p.r(C)p.r(U)p.r(U)p.r(C)p.r(G)p.r(A)p.r(T)p.r(T)}|RNA2{r(T)p.r(C)p.r(G)p.r(A)p.r(A)p.r(G)p.[lna](T)p.r(A)p.r(C)p.r(U)p.r(C)p.r(A)p.r(G)p.r(C)p.r(G)p.r(U)p.r(A)p.r(A)p.r(G)p.[lna](T)p.[lna](T)}$$$RNA1{StrandType:ss}|RNA2{StrandType:as}$" , target mRNA knockdown reported as 93

Note to self: target mRNA knockdown recorded for "RNA1{r(U)p.r(C)p.r(C)p.r(U)p.r(C)p.r(G)p.r(U)p.r(C)p.r(G)p.r(U)p.r(C)p.r(U)p.r(G)p.r(U)p.r(U)p.r(C)p.m(U)p.r(A)p.r(A)p.r(T)p.r(T)}|RNA2{r(U)p.m(U)p.r(A)p.r(G)p.r(A)p.r(A)p.r(C)p.r(A)p.r(G)p.r(A)p.r(C)p.r(G)p.r(A)p.r(C)p.r(G)p.r(A)p.r(G)p.r(G)p.r(A)p.r(T)p.r(T)}$$$RNA1{StrandType:ss}|RNA2{StrandType:as}$" was 84

Briefly, target mRNA knockdown measured for "RNA1{m(C)p.r(U)p.m(A)p.r(G)p.m(U)p.r(C)p.m(G)p.r(A)p.m(A)p.r(A)p.m(G)p.r(A)p.m(A)p.r(A)p.m(A)p.r(C)p.m(G)p.r(G)p.m(G)p.r(T)p.r(T)}|RNA2{r(C)p.r(C)p.r(C)p.r(G)p.r(U)p.r(U)p.r(U)p.r(U)p.r(C)p.r(U)p.r(U)p.r(U)p.r(C)p.r(G)p.m(A)p.r(C)p.r(U)p.m(A)p.r(G)p.r(T)p.r(T)}$$$RNA1{StrandType:ss}|RNA2{StrandType:as}$" : 23

###

Conditions: siRNA
HELM strings list units from the 5' end as sugar, base in round brackets, then linkage (d deoxyribose, r ribose, m 2'-O-methyl, p phosphodiester). Strings are as the collection lists them, not checked against the first reports. ss, as = sense and antisense strand; [fl2r] = 2'-fluoro
For each of the substances below, state its target mRNA knockdown.
Answer format: numeric, % implied, no suffix.

Lookup result for "RNA1{r(G)p.r(A)p.r(A)p.r(A)p.r(C)p.r(U)p.r(G)p.r(G)p.r(U)p.r(A)p.r(C)p.r(U)p.r(U)p.r(U)p.r(C)p.r(C)p.r(C)p.r(C)p.r(C)p.r(T)p.r(T)}|RNA2{r(G)p.r(G)p.r(G)p.r(G)p.r(G)p.r(A)p.r(A)p.r(A)p.r(G)p.[fl2r](U)p.r(A)p.r(C)p.r(C)p.r(A)p.r(G)p.[fl2r](U)p.[fl2r](U)p.[fl2r](U)p.r(C)p.r(T)p.r(T)}$$$RNA1{StrandType:ss}|RNA2{StrandType:as}$" ; measured target mRNA knockdown: 26

Reported target mRNA knockdown of "RNA1{m(A)p.r(U)p.m(A)p.r(C)p.m(U)p.r(U)p.m(G)p.r(G)p.m(C)p.r(G)p.m(G)p.r(G)p.m(C)p.r(U)p.m(C)p.r(U)p.m(U)p.r(U)p.m(C)p.r(T)p.r(T)}|RNA2{r(G)p.r(A)p.r(A)p.r(A)p.r(G)p.r(A)p.r(G)p.r(C)p.r(C)p.r(C)p.r(G)p.r(C)p.r(C)p.r(A)p.r(A)p.r(G)p.r(U)p.r(A)p.r(U)p.r(T)p.r(T)}$$$RNA1{StrandType:ss}|RNA2{StrandType:as}$" : 19

# substance "RNA1{r(A)p.r(A)p.r(G)p.m(G)p.m(A)p.r(G)p.r(A)p.r(U)p.m(C)p.m(A)p.m(A)p.r(C)p.r(A)p.r(U)p.m(U)p.m(U)p.r(U)p.r(C)p.r(A)p.r(T)p.r(T)}|RNA2{m(U)p.m(G)p.m(A)p.r(A)p.r(A)p.m(A)p.m(U)p.m(G)p.r(U)p.r(U)p.r(G)p.m(A)p.m(U)p.m(C)p.r(U)p.r(C)p.m(C)p.m(U)p.m(U)p.r(T)p.r(T)}$$$RNA1{StrandType:ss}|RNA2{StrandType:as}$" ; its target mRNA knockdown = 38

###

Details: siRNA
HELM strings list units from the 5' end as sugar, base in round brackets, then linkage (d deoxyribose, r ribose, m 2'-O-methyl, p phosphodiester). Strings are as the collection lists them, not checked against the first reports. ss, as = sense and antisense strand; [s4r] = 4'-thioribose
Property name: target mRNA knockdown (%)
Please respond with the number in % and leave the unit unwritten.

// field: target mRNA knockdown; key: "RNA1{m(G)p.r(C)p.m(U)p.r(U)p.m(U)p.r(A)p.m(A)p.r(G)p.m(G)p.r(A)p.m(A)p.r(C)p.m(U)p.r(G)p.m(G)p.r(A)p.m(A)p.r(G)p.m(G)p.r(T)p.r(T)}|RNA2{r(C)p.r(C)p.r(U)p.r(U)p.r(C)p.r(C)p.r(A)p.m(G)p.r(U)p.r(U)p.r(C)p.r(C)p.r(U)p.r(U)p.r(A)p.r(A)p.r(A)p.m(G)p.r(C)p.r(T)p.r(T)}$$$RNA1{StrandType:ss}|RNA2{StrandType:as}$" ; value = 51

Per the record, "RNA1{r(G)p.r(G)p.r(A)p.r(A)p.r(G)p.m(U)p.r(A)p.r(A)p.r(G)p.r(G)p.r(A)p.r(C)p.m(C)p.r(A)p.r(G)p.r(A)p.r(G)p.r(A)p.r(C)p.r(T)p.r(T)}|RNA2{r(G)p.r(U)p.r(C)p.r(U)p.r(C)p.m(U)p.r(G)p.r(G)p.r(U)p.r(C)p.r(C)p.r(U)p.m(U)p.r(A)p.r(C)p.r(U)p.r(U)p.r(C)p.r(C)p.r(T)p.r(T)}$$$RNA1{StrandType:ss}|RNA2{StrandType:as}$" has target mRNA knockdown of 41

The reported value for "RNA1{[s4r](C)p.[s4r](G)p.[s4r](U)p.[s4r](A)p.[s4r](C)p.[s4r](G)p.r(C)p.r(G)p.r(G)p.r(A)p.r(A)p.r(U)p.r(A)p.[s4r](C)p.[s4r](U)p.[s4r](U)p.[s4r](C)p.[s4r](G)p.[s4r](A)p.r(T)p.r(T)}|RNA2{[s4r](U)p.[s4r](C)p.[s4r](G)p.[s4r](A)p.[s4r](A)p.[s4r](G)p.r(U)p.r(A)p.r(U)p.r(U)p.r(C)p.r(C)p.r(G)p.[s4r](C)p.[s4r](G)p.[s4r](U)p.[s4r](A)p.[s4r](C)p.[s4r](G)p.r(T)p.r(T)}$$$RNA1{StrandType:ss}|RNA2{StrandType:as}$" in terms of target mRNA knockdown is 0

Data point: "RNA1{r(C)p.r(U)p.r(U)p.r(C)p.r(U)p.r(U)p.r(C)p.r(G)p.r(U)p.r(C)p.r(G)p.r(A)p.r(G)p.r(A)p.r(C)p.r(C)p.r(A)p.r(U)p.r(G)p.d(T)p.d(T)}|RNA2{r(C)p.r(A)p.r(U)p.r(G)p.r(G)p.r(U)p.r(C)p.r(U)p.r(C)p.r(G)p.r(A)p.r(C)p.r(G)p.r(A)p.r(A)p.r(G)p.r(A)p.r(A)p.r(G)p.d(T)p.d(T)}$$$RNA1{StrandType:ss}|RNA2{StrandType:as}$" ; target mRNA knockdown = 45

# target mRNA knockdown of "RNA1{m(G)p.r(A)p.m(G)p.r(G)p.m(A)p.r(U)p.m(G)p.r(G)p.m(A)p.r(U)p.m(U)p.r(C)p.m(G)p.r(A)p.m(C)p.r(U)p.m(U)p.r(A)p.r(G)p.r(T)p.r(T)}|RNA2{r(C)p.m(U)p.r(A)p.r(A)p.r(G)p.m(U)p.r(C)p.r(G)p.r(A)p.r(A)p.m(U)p.r(C)p.r(C)p.r(A)p.r(U)p.r(C)p.r(C)p.r(U)p.r(C)p.r(T)p.r(T)}$$$RNA1{StrandType:ss}|RNA2{StrandType:as}$" = 23

The substance listed as "RNA1{m(A)p.r(A)p.m(G)p.r(G)p.m(A)p.r(C)p.m(C)p.r(U)p.m(A)p.r(G)p.m(A)p.r(G)p.m(G)p.r(A)p.m(G)p.r(U)p.m(C)p.r(A)p.m(C)p.r(T)p.r(T)}|RNA2{m(G)p.r(U)p.m(G)p.r(A)p.r(C)p.r(U)p.r(C)p.r(C)p.r(U)p.r(C)p.r(U)p.r(A)p.m(G)p.m(G)p.r(U)p.r(C)p.r(C)p.r(U)p.r(U)p.r(T)p.r(T)}$$$RNA1{StrandType:ss}|RNA2{StrandType:as}$" shows target mRNA knockdown equal to 36

The substance listed as "RNA1{r(A)p.r(A)p.r(C)p.r(A)p.r(G)p.r(U)p.r(C)p.r(C)p.r(U)p.m(U)p.r(A)p.r(G)p.r(C)p.m(U)p.r(A)p.r(C)p.r(G)p.r(C)p.m(U)p.r(T)p.r(T)}|RNA2{r(A)p.r(G)p.r(C)p.r(G)p.m(U)p.r(A)p.r(G)p.r(C)p.r(U)p.r(A)p.r(A)p.r(G)p.r(G)p.r(A)p.r(C)p.r(U)p.r(G)p.r(U)p.r(U)p.r(T)p.r(T)}$$$RNA1{StrandType:ss}|RNA2{StrandType:as}$" shows target mRNA knockdown equal to 82

Documented target mRNA knockdown of "RNA1{r(C)p.r(U)p.r(C)p.r(C)p.r(U)p.r(U)p.m(C)p.r(A)p.r(U)p.r(U)p.r(C)p.m(C)p.r(A)p.r(G)p.r(C)p.r(C)p.m(U)p.r(A)p.r(U)p.r(T)p.r(T)}|RNA2{r(A)p.m(U)p.r(A)p.r(G)p.r(G)p.r(C)p.m(U)p.r(G)p.r(G)p.r(A)p.r(A)p.m(U)p.r(G)p.r(A)p.r(A)p.r(G)p.r(G)p.r(A)p.r(G)p.r(T)p.r(T)}$$$RNA1{StrandType:ss}|RNA2{StrandType:as}$" : 78

Measured target mRNA knockdown, "RNA1{r(A)p.r(A)p.r(G)p.r(G)p.m(C)p.r(A)p.r(U)p.r(G)p.r(C)p.r(U)p.r(U)p.r(C)p.r(G)p.r(G)p.r(A)p.r(A)p.r(A)p.r(C)p.r(U)p.r(T)p.r(T)}|RNA2{r(A)p.r(G)p.r(U)p.r(U)p.r(U)p.r(C)p.r(C)p.r(G)p.r(A)p.r(A)p.r(G)p.m(C)p.r(A)p.r(U)p.r(G)p.r(C)p.r(C)p.r(U)p.r(U)p.r(T)p.r(T)}$$$RNA1{StrandType:ss}|RNA2{StrandType:as}$" : 95

Briefly, target mRNA knockdown measured for "RNA1{r(A)p.r(A)p.r(G)p.r(G)p.r(A)p.r(A)p.r(C)p.r(G)p.r(G)p.r(G)p.r(G)p.r(A)p.r(C)p.r(A)p.r(C)p.r(U)p.r(U)p.r(A)p.r(C)p.r(T)p.r(T)}|RNA2{r(G)p.m(U)p.r(A)p.r(A)p.r(G)p.r(U)p.r(G)p.r(U)p.r(C)p.r(C)p.r(C)p.r(C)p.r(G)p.r(U)p.r(U)p.r(C)p.r(C)p.r(U)p.r(U)p.r(T)p.r(T)}$$$RNA1{StrandType:ss}|RNA2{StrandType:as}$" : 38
